# test-name: Protein binding in rat plasma at 37.38 ug/ml of total concentration measured after 12 hrs by ultrafiltration based HPLC analysis
# Format: ADME, cell-free
# experimental-context: at 37.38 µg/mL, read-out: PPB (converted)
measurement-label: fraction unbound at 12 h, 37.38 ug/ml

compound | endpoint-result
COc1cc2c3c(c1)-c1ccc(O)cc1CC3NCC2 (stereo unspecified) | 0.491

* * *

# assayed-system: Aryl hydrocarbon receptor (Mus musculus)
# Sequence (P30561 whole entry): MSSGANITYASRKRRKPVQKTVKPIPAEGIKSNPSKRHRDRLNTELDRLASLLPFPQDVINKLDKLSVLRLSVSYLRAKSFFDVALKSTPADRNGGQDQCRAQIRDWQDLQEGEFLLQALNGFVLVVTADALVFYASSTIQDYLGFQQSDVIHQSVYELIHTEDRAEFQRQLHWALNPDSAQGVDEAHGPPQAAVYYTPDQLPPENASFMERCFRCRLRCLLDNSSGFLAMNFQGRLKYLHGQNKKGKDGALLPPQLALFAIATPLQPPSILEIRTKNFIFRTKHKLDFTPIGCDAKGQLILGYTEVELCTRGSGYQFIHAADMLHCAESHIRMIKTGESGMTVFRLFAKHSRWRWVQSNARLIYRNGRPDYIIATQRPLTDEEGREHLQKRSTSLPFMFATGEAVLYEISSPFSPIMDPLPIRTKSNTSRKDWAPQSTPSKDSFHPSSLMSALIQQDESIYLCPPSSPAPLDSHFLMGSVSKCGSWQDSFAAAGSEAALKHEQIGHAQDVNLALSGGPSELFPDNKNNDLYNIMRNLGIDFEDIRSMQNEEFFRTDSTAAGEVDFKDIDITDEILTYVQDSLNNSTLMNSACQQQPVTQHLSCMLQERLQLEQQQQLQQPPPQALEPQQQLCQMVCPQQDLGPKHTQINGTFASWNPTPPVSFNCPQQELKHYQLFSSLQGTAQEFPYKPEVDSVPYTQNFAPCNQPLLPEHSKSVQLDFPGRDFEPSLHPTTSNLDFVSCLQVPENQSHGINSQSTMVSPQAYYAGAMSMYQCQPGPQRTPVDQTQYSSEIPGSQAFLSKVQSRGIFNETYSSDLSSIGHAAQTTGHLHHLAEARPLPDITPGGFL
# test-name: Activation of AhR transcription in C57BL/6 mouse naive T cells assessed as increase in CYP1A1 mRNA expression at 1 to 3 uM by qRT-PCR analysis
# Format: cell-based
# experimental-context: t cell, dose 1-3 µM

molecule | Activity
COc1cc2c(cc1OC)-c1c(OC)c(OC)cc3c1C(C2)NCC3 (centres undefined) | Not Active
COc1cc2c3c(c1OC)-c1cc(O)ccc1CC3NCC2 (centres undefined) | Not Active
COc1cc2c3c(c1OC)-c1ccccc1CC3N(C)CC2 (stereo not drawn) [(+/-)-NUCIFERINE] | Not Active
COc1cc2c(cc1O)-c1c(OC)c(OC)cc3c1C(C2)NCC3 (centres undefined) | Not Active

* * *

# test-name: Protein binding in rat plasma at 48.02 ug/ml of total concentration measured after 12 hrs by ultrafiltration based HPLC analysis
# Assay type: ADME, cell-free
# experimental-context: at 48.02 µg/mL, read-out: PPB (converted)

molecule | fraction unbound at 12 h, 48.02 ug/ml
COc1cc2c3c(c1)-c1ccc(O)cc1CC3NCC2 (stereo unspecified) | 0.139

* * *

# test-name: MRT in Sprague-Dawley rat at 3 mg/kg, iv measured upto 1440 min by LC-MS/MS analysis
# Assay type: ADME, organism-based
# experimental-context: in vivo
measurement-label: MRT (h)

molecule | endpoint-result
COc1cc2c3c(c1)-c1ccc(O)cc1CC3NCC2 (configuration not stated) | 3.07
COc1cc2c(cc1O)CC1NCCc3cc(OC)c(O)c-2c31 (configuration not stated) | 0.343

* * *

# test-name: AUC(0 to infinity) in Sprague-Dawley rat at 30 mg/kg, po measured upto 1440 min by LC-MS/MS analysis
# Type: ADME, organism-based
# Set-up: time < 1440 min, dose 30 mg/kg, route po
# experimental-context: in vivo
Reported AUC(0-inf) by item:
measurement-label: AUC(0-inf)

compound | measurement-label | endpoint-result
COc1cc2c3c(c1)-c1ccc(O)cc1CC3NCC2 (configuration not stated) | AUC(0-inf) | 8520 ng·h/mL
COc1cc2c(cc1O)CC1NCCc3cc(OC)c(O)c-2c31 (configuration not stated) | AUC(0-inf) | 27.8 ng·h/mL

* * *

# test-name: Protein binding in rat plasma at 20.13 ug/ml of total concentration measured after 12 hrs by ultrafiltration based HPLC analysis
# Type: ADME, cell-free
# experimental-context: at 20.13 µg/mL, read-out: PPB

compound | fraction unbound at 12 h, 20.13 ug/ml
COc1cc2c3c(c1)-c1ccc(O)cc1CC3NCC2 (stereo unspecified) | 0.498

* * *

# test-name: Oral bioavailability in Sprague-Dawley rat at 30 mg/kg measured upto 1440 min by LC-MS/MS analysis
# Type: ADME, organism-based
# experimental-context: in vivo

molecule | unit-annotation | bioavailability
COc1cc2c3c(c1)-c1ccc(O)cc1CC3NCC2 (configuration not stated) | % | 87.4
COc1cc2c(cc1O)CC1NCCc3cc(OC)c(O)c-2c31 (configuration not stated) | % | 2.49

* * *

# assayed-system: Aryl hydrocarbon receptor (Mus musculus, UniProt P30561)
# Sequence (P30561 whole entry): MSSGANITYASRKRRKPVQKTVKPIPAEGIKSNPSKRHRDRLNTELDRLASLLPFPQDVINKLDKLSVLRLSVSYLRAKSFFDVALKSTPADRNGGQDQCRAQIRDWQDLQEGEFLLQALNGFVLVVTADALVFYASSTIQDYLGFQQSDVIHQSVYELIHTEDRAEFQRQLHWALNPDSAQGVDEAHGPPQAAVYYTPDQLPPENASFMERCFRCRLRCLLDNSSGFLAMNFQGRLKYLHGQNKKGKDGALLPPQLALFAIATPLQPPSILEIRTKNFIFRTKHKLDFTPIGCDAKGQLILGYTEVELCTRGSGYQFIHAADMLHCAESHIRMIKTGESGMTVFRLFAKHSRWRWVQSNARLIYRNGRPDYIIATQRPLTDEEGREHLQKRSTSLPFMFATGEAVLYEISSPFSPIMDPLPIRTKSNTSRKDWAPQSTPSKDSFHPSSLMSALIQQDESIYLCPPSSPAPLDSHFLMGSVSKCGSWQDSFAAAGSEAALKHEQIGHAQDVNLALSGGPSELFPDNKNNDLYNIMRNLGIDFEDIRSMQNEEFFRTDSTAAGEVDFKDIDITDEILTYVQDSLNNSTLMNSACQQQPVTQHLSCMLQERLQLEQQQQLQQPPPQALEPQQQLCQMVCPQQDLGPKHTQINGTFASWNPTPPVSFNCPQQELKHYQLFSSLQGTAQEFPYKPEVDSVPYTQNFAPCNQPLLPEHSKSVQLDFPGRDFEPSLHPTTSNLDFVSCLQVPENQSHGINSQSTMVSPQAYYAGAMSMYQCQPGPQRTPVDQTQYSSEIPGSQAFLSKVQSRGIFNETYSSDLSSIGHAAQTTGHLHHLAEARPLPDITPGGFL
# test-name: Activation of AhR transcription in C57BL/6 mouse naive T cells assessed as increase in CYP1B1 mRNA expression at 1 to 3 uM by qRT-PCR analysis
# Type: cell-based
# experimental-context: t cell, dose 1-3 µM
measurement-label: Activity

molecule | endpoint-result
COc1cc2c3c(c1OC)-c1cc(O)ccc1CC3NCC2 (stereo not given) | Not Active
COc1cc2c3c(c1OC)-c1ccccc1CC3N(C)CC2 (stereo not drawn) [(+/-)-NUCIFERINE] | Not Active
COc1cc2c(cc1OC)-c1c(OC)c(OC)cc3c1C(C2)NCC3 (stereo not given) | Not Active
COc1cc2c(cc1O)-c1c(OC)c(OC)cc3c1C(C2)NCC3 (stereo not given) | Not Active
